tested on: human tumour cell line A431 (epithelial carcinoma); assay: Tumour cell proliferation assay (methylene blue); conditions: Homo sapiens, A-431, 72 h, read-out: IC50, proliferation of A431
quantity_measured: IC50 (µM)
Write down the numeric answer in µM and omit the unit.

[Q] Please give measured IC50 of the following entry: O=P(O)(O)C(O)(Cn1ccnc1)P(=O)(O)O [Zoledronate]
[A] 1.35
